B1: Osa-1-4 twister ribozyme (parent)
chain: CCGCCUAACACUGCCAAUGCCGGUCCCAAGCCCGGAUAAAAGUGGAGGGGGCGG

Variants of: B1
Test: self-cleavage, relative activity (ratio to wild type); higher = more cleavage; co-transcriptional
Hi, to clarify the labels: Yes covers self-cleavage from 0.2 upward, No covers anything below 0.2.

(Q) Kindly determine if self-cleavage recorded for A39U C31U is above or exactly 0.2.
(A) Yes

(Q) Given the entry C31G C32G , answer whether its self-cleavage meets or surpasses 0.2.
(A) No

(Q) Does the reported self-cleavage for C26U U18C fall at or above the 0.2 mark?
(A) Yes

(Q) Record G13C G30A ; criterion: self-cleavage no lower than 0.2. Met?
(A) No

(Q) API: above_or_equal(metric=self-cleavage, cutoff=0.2) for item A10G G45C
(A) No

(Q) Reported self-cleavage at or above 0.2? G49U U43A
(A) No

(Q) Is self-cleavage at least 0.2? Consider A29U U12G
(A) No

(Q) Quick check: does C33G G50U have self-cleavage greater than or equal to 0.2?
(A) No

(Q) Check the entry G51C U37A : does self-cleavage equal or exceed 0.2?
(A) No

(Q) Evaluate A40C C33A : self-cleavage at minimum 0.2?
(A) No
